# Tgt: 5-hydroxytryptamine receptor 2A (Rattus norvegicus)
# Experiment Notes: Displacement of [3H]ketanserin from rat cloned 5HT2A receptor at 1 uM
Listing of recorded Activity by entry.
Give a bare numeral; the unit % is implied.

Fill in: Activity of O=C(c1ccc2ccccc2c1)N1CCC(NCCc2ccccc2)CC1 is ___
50

Fill in: Activity of O=C(c1ccc2ccccc2c1)N1CCC(NCc2ccccc2)CC1 is ___
8

Fill in: Activity of O=C(c1ccc2ccccc2c1)N1CCC(NCCCc2ccccc2)CC1 is ___
41

Fill in: Activity of O=C(c1cccc2ccccc12)N1CCC(NCc2ccccc2)CC1 is ___
10

Fill in: Activity of O=C(c1cccc2ccccc12)N1CCC(NCCCc2ccccc2)CC1 is ___
35
